biological target: D2 receptor (Homo sapiens); construct: host or cells: HEK-293; experiment: Eurofins Cerep competition binding assay at D2 receptor; details: test ligand 10 μM; [3H]methylspiperone 0.3 nM; recombinant receptor, HEK-293 membranes
Sequence (P14416 1-414 isoform P14416-2): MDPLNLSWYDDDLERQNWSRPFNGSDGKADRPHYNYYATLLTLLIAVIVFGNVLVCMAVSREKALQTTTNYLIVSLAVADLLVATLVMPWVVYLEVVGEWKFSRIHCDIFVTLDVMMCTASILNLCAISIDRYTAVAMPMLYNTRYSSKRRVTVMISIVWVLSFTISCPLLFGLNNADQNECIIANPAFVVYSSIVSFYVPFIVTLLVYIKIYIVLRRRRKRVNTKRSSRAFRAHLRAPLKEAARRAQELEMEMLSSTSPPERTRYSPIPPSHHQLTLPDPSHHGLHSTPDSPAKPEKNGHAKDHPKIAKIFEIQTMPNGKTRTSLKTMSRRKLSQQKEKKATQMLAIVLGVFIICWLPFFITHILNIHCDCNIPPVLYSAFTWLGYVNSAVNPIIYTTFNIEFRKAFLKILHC
measured-metric: D2, percent of control-specific binding (%)

1. COc1cc(CC(C)N)c(OC)cc1Br (stereo not shown) [DOB, reference compound] : 9
2. CCOc1c(OC)cc(CCN)cc1OC [escaline] : 5
3. c1cc2c(cc1CC1=NCCO1)OCO2 [C(III)] : 0
4. CC(C(=O)N1CCCC1)c1ccc2c(c1)OCO2 (racemic) [Ax(II)] : 0

---

Each entry below carries its recorded NET, percent of control-specific binding.
biological target: norepinephrine transporter (NET) (Homo sapiens); construct: host or cells: CHO; test: Eurofins Cerep competition binding assay at norepinephrine transporter; details: test ligand 10 μM; [3H]nisoxetine 1 nM; recombinant transporter, CHO membranes
Sequence (P23975 whole entry): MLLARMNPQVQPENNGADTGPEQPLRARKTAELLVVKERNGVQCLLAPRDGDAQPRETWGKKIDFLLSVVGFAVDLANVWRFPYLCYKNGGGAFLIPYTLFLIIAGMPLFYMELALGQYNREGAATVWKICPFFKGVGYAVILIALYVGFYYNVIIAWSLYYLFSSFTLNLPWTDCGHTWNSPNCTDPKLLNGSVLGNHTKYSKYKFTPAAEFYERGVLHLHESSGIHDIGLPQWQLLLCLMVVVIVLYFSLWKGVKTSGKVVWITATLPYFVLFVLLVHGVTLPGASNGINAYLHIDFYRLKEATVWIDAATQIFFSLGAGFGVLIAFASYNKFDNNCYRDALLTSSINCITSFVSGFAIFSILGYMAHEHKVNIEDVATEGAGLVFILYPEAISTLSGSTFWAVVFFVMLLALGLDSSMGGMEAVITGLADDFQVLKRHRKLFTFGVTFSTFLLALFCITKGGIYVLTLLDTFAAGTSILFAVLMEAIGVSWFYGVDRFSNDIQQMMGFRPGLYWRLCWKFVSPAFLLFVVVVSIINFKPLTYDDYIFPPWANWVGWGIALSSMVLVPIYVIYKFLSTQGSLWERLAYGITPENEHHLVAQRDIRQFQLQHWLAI
measured-metric: NET, percent of control-specific binding (%)

1) CC(CN(C)Cc1ccccc1)c1ccc2c(c1)OCO2 (racemic) : 47
2) CC(C(=O)N1CCCC1)c1ccc2c(c1)OCO2 (racemic) : 0
3) CC(CN1CCCC1)c1ccc2c(c1)OCO2 (racemic) : 9
4) c1cc2c(cc1CC1=NCCO1)OCO2 : 0
5) CC(C(=O)N(C)Cc1ccccc1)c1ccc2c(c1)OCO2 (racemic) : 13

---

target: 5-HT1A receptor (Homo sapiens, UniProt P08908); construct: purchased Perkin Elmer 6110501400UA; test: Eurofins Cerep competition binding assay at 5-HT1A receptor; conditions: test ligand 10 μM; [3H]8-OH-DPAT 0.5 nM; recombinant receptor, HEK-293 membranes
measured-metric: HT1A, percent of control-specific binding (%)

1) CC(C(=O)N1CCCC1)c1ccc2c(c1)OCO2 (racemic) : 3
2) CC(C(=O)N(C)Cc1ccccc1)c1ccc2c(c1)OCO2 (racemic) : 2
3) c1cc2c(cc1CC1=NCCO1)OCO2 : 24
4) CC(CN1CCCC1)c1ccc2c(c1)OCO2 (racemic) : 36
5) CC(CN(C)Cc1ccccc1)c1ccc2c(c1)OCO2 (racemic) : 17

---

target: dopamine transporter (DAT) (Homo sapiens); construct: host or cells: CHO; assay: Eurofins Cerep competition binding assay at dopamine transporter; conditions: test ligand 10 μM; [3H]BTCP 4 nM; recombinant transporter, CHO membranes
Sequence (Q01959 whole entry): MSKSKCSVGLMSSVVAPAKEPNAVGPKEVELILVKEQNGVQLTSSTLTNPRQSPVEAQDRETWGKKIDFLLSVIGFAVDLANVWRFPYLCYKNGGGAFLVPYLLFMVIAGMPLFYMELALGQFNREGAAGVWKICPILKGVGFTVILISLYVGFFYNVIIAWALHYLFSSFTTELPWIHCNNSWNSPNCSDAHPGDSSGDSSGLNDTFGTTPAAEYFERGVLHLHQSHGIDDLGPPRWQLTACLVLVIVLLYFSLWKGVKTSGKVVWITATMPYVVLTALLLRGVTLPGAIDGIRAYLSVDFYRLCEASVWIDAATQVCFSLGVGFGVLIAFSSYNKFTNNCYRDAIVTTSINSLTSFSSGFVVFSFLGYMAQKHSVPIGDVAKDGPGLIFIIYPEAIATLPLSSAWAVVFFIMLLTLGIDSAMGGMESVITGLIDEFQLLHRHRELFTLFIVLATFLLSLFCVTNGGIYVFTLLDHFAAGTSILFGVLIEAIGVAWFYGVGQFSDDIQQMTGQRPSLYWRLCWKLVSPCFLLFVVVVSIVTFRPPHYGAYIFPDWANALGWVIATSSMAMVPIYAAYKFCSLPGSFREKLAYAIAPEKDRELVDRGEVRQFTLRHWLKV
Each entry below carries its recorded DAT, percent of control-specific binding.
measured-metric: DAT, percent of control-specific binding (%)

1. CC(C(=O)N(C)Cc1ccccc1)c1ccc2c(c1)OCO2 (racemic) : 71
2. CC(CN1CCCC1)c1ccc2c(c1)OCO2 (racemic) : 79
3. c1cc2c(cc1CC1=NCCO1)OCO2 : 19
4. CC(C(=O)N1CCCC1)c1ccc2c(c1)OCO2 (racemic) : 5
5. CC(CN(C)Cc1ccccc1)c1ccc2c(c1)OCO2 (racemic) : 78

---

Target: UniProtKB P08908
Sequence (P08908 1-422): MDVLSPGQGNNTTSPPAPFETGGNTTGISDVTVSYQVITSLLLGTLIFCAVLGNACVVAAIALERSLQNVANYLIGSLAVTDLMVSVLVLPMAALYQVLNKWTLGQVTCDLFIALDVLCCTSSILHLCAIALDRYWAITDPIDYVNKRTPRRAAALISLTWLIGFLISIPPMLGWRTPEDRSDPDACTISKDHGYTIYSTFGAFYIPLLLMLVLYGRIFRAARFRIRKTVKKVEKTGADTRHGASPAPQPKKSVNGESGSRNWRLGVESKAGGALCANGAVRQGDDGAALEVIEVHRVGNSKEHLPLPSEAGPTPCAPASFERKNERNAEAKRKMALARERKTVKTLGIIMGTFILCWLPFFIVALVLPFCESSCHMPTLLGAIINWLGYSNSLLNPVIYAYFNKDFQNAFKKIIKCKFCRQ
Each entry below carries its recorded Ki.
measured-metric: Ki (µM)

1. CC(C(=O)N1CCCC1)c1ccc2c(c1)OCO2 (racemic) : 108
2. CC(CN1CCCC1)c1ccc2c(c1)OCO2 (racemic) : 14
3. CC(CN(C)Cc1ccccc1)c1ccc2c(c1)OCO2 (racemic) : 45
4. CC(C(=O)N(C)Cc1ccccc1)c1ccc2c(c1)OCO2 (racemic) : 186
5. c1cc2c(cc1CC1=NCCO1)OCO2 : 31

---

Ki, 5-HT2A receptor (Homo sapiens): measured values
measured-metric: Ki

1) CC(C(=O)N(C)Cc1ccccc1)c1ccc2c(c1)OCO2 (racemic) : 83 µM
2) CC(C(=O)N1CCCC1)c1ccc2c(c1)OCO2 (racemic) : 591 µM
3) CC(CN(C)Cc1ccccc1)c1ccc2c(c1)OCO2 (racemic) : 63 µM
